Experiment: Stability in liver microsomes, human
Answer each item with its documented Trep Concentration 60 min.

Entry CCCCCC(CCC1C(O)CC2Cc3c(cccc3OCC(=O)O)CC21)OC(=O)NCCO (stereo not shown) : reported Trep Concentration 60 min = ?
0 µM

Entry CCCCCC(CCC1C(O)CC2Cc3c(cccc3OCC(=O)O)CC21)OC(=O)C12CC3CC(CC(C3)C1)C2 (stereo not shown) : reported Trep Concentration 60 min = ?
0.252 µM

Entry CCCCCC(CCC1C(O)CC2Cc3c(cccc3OCC(=O)O)CC21)OC(=O)c1ccccc1O (stereo not shown) : reported Trep Concentration 60 min = ?
0.0332 µM

Entry CCCCCC(CCC1C(O)CC2Cc3c(cccc3OCC(=O)O)CC21)OCCN1CCOCC1 (stereo not shown) : reported Trep Concentration 60 min = ?
0.00244 µM

====

Assay: Stability in cryopreserved hepatocytes, human
Conditions: human
Answer each item with its documented Mono AUC (treprostinil formed).
Output spec: scalar in µmol·min/L, unitless text.

Entry CCCCCC(CCC1C(OC(=O)CC)CC2Cc3c(cccc3OCC(=O)O)CC21)OC(=O)CC (stereo not drawn) [Prodrug LXX, treprostinil dipropionate] : reported Mono AUC (treprostinil formed) = ?
56.2

Entry CCCCCC(CCC1C(O)CC2Cc3c(cccc3OCC(=O)O)CC21)OC(C)=O (stereo not drawn) [Prodrug XLIII] : reported Mono AUC (treprostinil formed) = ?
62.2

Entry CCCCCC(CCC1C(O)CC2Cc3c(cccc3OCC(=O)O)CC21)OC(=O)CC (stereo not drawn) [Prodrug LV] : reported Mono AUC (treprostinil formed) = ?
68.8

Entry CCCCCC(CCC1C(O)CC2Cc3c(cccc3OCC(=O)O)CC21)OP(=O)(O)O (stereo not drawn) [Prodrug VI] : reported Mono AUC (treprostinil formed) = ?
48.7

Entry CCCCCC(CCC1C(OC(=O)OC)CC2Cc3c(cccc3OCC(=O)O)CC21)OC(=O)OC (stereo not drawn) [Prodrug LXXI, treprostinil dicarbonate] : reported Mono AUC (treprostinil formed) = ?
26.6

Entry CCCCCC(CCC1C(O)CC2Cc3c(cccc3OCC(=O)O)CC21)OC(=O)OC (stereo not drawn) [Prodrug IV] : reported Mono AUC (treprostinil formed) = ?
39.8

====

Experiment: Stability in human subcutaneous skin homogenate
Threshold 0.2 µM. Trep Concentration 30 min below it: 1. Trep Concentration 30 min at it or above: -1.

# strict comparison: is reported Trep Concentration 30 min < 0.2 µM? input = CCCCCC(O)CCC1C(OC)CC2Cc3c(cccc3OCC(=O)O)CC21 (centres unmarked) [LIII]
1

# strict comparison: is reported Trep Concentration 30 min < 0.2 µM? input = CCCCCC(CCC1C(O)CC2Cc3c(cccc3OCC(=O)O)CC21)OC(=O)C(N)CCCCN (centres unmarked) [XXXV]
-1

# strict comparison: is reported Trep Concentration 30 min < 0.2 µM? input = CCCCCC(CCC1C(O)CC2Cc3c(cccc3OCC(=O)O)CC21)OC(=O)CC (centres unmarked) [LV]
-1

# strict comparison: is reported Trep Concentration 30 min < 0.2 µM? input = CCCCCC(O)CCC1C(OC(=O)CCC(=O)O)CC2Cc3c(cccc3OCC(=O)O)CC21 (centres unmarked) [XXII]
1

# strict comparison: is reported Trep Concentration 30 min < 0.2 µM? input = CCCCCC(CCC1C(O)CC2Cc3c(cccc3OCC(=O)O)CC21)OC(=O)OCC(=O)O (centres unmarked) [XXXIX]
1

# strict comparison: is reported Trep Concentration 30 min < 0.2 µM? input = CCCCCC(CCC1C(O)CC2Cc3c(cccc3OCC(=O)O)CC21)OC(=O)OCCOCCOC (centres unmarked) [XLI]
1

# strict comparison: is reported Trep Concentration 30 min < 0.2 µM? input = CCCCCC(CCC1C(O)CC2Cc3c(cccc3OCC(=O)O)CC21)OC(=O)CCC(=O)O (centres unmarked) [XX]
1

====

Answer each item with its documented AUC.
Settings: rat
Output spec: scalar in µmol·min/L, unitless text.

Entry CCCCCC(CCC1C(O)CC2Cc3c(cccc3OCC(=O)O)CC21)OC(=O)COc1ccccc1 (centres unmarked) [LXV] : reported AUC = ?
51.11

Entry CCCCCC(CCC1C(O)CC2Cc3c(cccc3OCC(=O)O)CC21)OC (centres unmarked) [XLV] : reported AUC = ?
0.83

Entry CCCCCC(CCC1C(O)CC2Cc3c(cccc3OCC(=O)O)CC21)OC(=O)c1ccccc1O (centres unmarked) [LXI] : reported AUC = ?
0.16

Entry CCCCCC(CCC1C(O)CC2Cc3c(cccc3OCC(=O)O)CC21)OC(=O)OCC(=O)O (centres unmarked) [XXXIX] : reported AUC = ?
0.00

Entry CCCCCC1CCC2C(CC3Cc4c(cccc4OCC(=O)O)CC32)OP(=O)(Oc2ccccc2)O1 (mixture of isomers) [XXVIII] : reported AUC = ?
0.00

Entry CCCCCC(CCC1C(O)CC2Cc3c(cccc3OCC(=O)O)CC21)OC(=O)CCN (centres unmarked) [XXXVII] : reported AUC = ?
0.00

Entry CCCCCC(O)CCC1C(OC(=O)CCC(=O)O)CC2Cc3c(cccc3OCC(=O)O)CC21 (centres unmarked) [XXII] : reported AUC = ?
0.24

Entry CCCCCC(CCC1C(O)CC2Cc3c(cccc3OCC(=O)O)CC21)OCCC (centres unmarked) [XLVI] : reported AUC = ?
4.67

====

Answer each item with its documented Trep Concentration (μM) 120 min.
Test: Stability in cryopreserved hepatocytes, dog
Output spec: scalar in µM, unitless text.

Entry CCCCCC(CCC1C(O)CC2Cc3c(cccc3OCC(=O)O)CC21)OC(=O)C(C)C (stereo not shown) [LXVII] : reported Trep Concentration (μM) 120 min = ?
0.42

Entry CCCCCC(CCC1C(O)CC2Cc3c(cccc3OCC(=O)O)CC21)OC(=O)CCC(=O)N1CCOCC1 (stereo not shown) [XXXIII] : reported Trep Concentration (μM) 120 min = ?
0.0754

Entry CCCCCC(CCC1C(O)CC2Cc3c(cccc3OCC(=O)O)CC21)OC(=O)C(C)(C)C (stereo not shown) [XLIX] : reported Trep Concentration (μM) 120 min = ?
0.258

Entry CCCCCC(CCC1C(O)CC2Cc3c(cccc3OCC(=O)O)CC21)OC(=O)COc1ccc(O)cc1 (stereo not shown) [LIV] : reported Trep Concentration (μM) 120 min = ?
0.262

Entry CCCCCC(CCC1C(O)CC2Cc3c(cccc3OCC(=O)O)CC21)OCC(=O)O (stereo not shown) [LVII] : reported Trep Concentration (μM) 120 min = ?
0

Entry CCCCCC(CCC1C(O)CC2Cc3c(cccc3OCC(=O)O)CC21)OC(=O)COc1ccc(OC(F)(F)F)cc1 (stereo not shown) [LXIV] : reported Trep Concentration (μM) 120 min = ?
0.451

Entry CCCCCC(CCC1C(O)CC2Cc3c(cccc3OCC(=O)O)CC21)OC(=O)NCCO (stereo not shown) [LIX] : reported Trep Concentration (μM) 120 min = ?
0.00907

Entry CCCCCC(CCC1C(O)CC2Cc3c(cccc3OCC(=O)O)CC21)OC(=O)c1ccc(C(F)(F)F)cc1 (stereo not shown) [LXII] : reported Trep Concentration (μM) 120 min = ?
0.166

Entry CCCCC[C@H]1CC[C@@H]2[C@H]3Cc4cccc(OCC(=O)O)c4C[C@H]3C[C@H]2OC(=O)O1 [XXIV] : reported Trep Concentration (μM) 120 min = ?
0.296

Entry CCCCCC(CCC1C(O)CC2Cc3c(cccc3OCC(=O)O)CC21)OC(=O)c1ccc(O)c(O)c1 (stereo not shown) [LXVI] : reported Trep Concentration (μM) 120 min = ?
0.00519

Entry CCCCCC(CCC1C(O)CC2Cc3c(cccc3OCC(=O)O)CC21)OC(=O)CC (stereo not shown) [LV] : reported Trep Concentration (μM) 120 min = ?
0.53

Entry CCCCCC(CCC1C(O)CC2Cc3c(cccc3OCC(=O)O)CC21)OC(N)=O (stereo not shown) [XLII] : reported Trep Concentration (μM) 120 min = ?
0.137

Entry CCCCCC(CCC1C(O)CC2Cc3c(cccc3OCC(=O)O)CC21)OC(C)=O (stereo not shown) [XLIII] : reported Trep Concentration (μM) 120 min = ?
0.4

Entry CCCCCC(CCC1C(O)CC2Cc3c(cccc3OCC(=O)O)CC21)OC(=O)C(N)CCCCN (stereo not shown) [XXXV] : reported Trep Concentration (μM) 120 min = ?
0.139

Entry CCCCCC(CCC1C(O)CC2Cc3c(cccc3OCC(=O)O)CC21)OCC (stereo not shown) [XLVII] : reported Trep Concentration (μM) 120 min = ?
0.00371

Entry CCCCCC(CCC1C(O)CC2Cc3c(cccc3OCC(=O)O)CC21)OC(=O)C1CCCN1 (stereo not shown) [XXXVI] : reported Trep Concentration (μM) 120 min = ?
0.279

Entry CCCCCC(CCC1C(O)CC2Cc3c(cccc3OCC(=O)O)CC21)OC(=O)N1CCC(O)CC1 (stereo not shown) [LVIII] : reported Trep Concentration (μM) 120 min = ?
0.00344

Entry CCCCCC(CCC1C(O)CC2Cc3c(cccc3OCC(=O)O)CC21)OC(=O)NC (stereo not shown) [VIII] : reported Trep Concentration (μM) 120 min = ?
0

Entry CCCCCC(CCC1C(O)CC2Cc3c(cccc3OCC(=O)O)CC21)OCCN1CCOCC1 (stereo not shown) [L] : reported Trep Concentration (μM) 120 min = ?
0.00568

Entry CCCCCC(CCC1C(O)CC2Cc3c(cccc3OCC(=O)O)CC21)OP(=O)(O)O (stereo not shown) [VI] : reported Trep Concentration (μM) 120 min = ?
0.548

Entry CCCCCC(CCC1C(O)CC2Cc3c(cccc3OCC(=O)O)CC21)OC(=O)CCC(=O)O (stereo not shown) [XX] : reported Trep Concentration (μM) 120 min = ?
0.198

Entry CCCCCC(CCC1C(O)CC2Cc3c(cccc3OCC(=O)O)CC21)OC (stereo not shown) [XLV] : reported Trep Concentration (μM) 120 min = ?
0
